molecular target: HLA-DR DRB1*0101 (DR1) (Homo sapiens, UniProt P01903+P01911, A100R/D57E/F55L/F60I/F76Y/I96L/L162R/M171V/P40L/Q125E/R42F/V115G/Y59C); test: biochemical; type: binding; details: DRB1 *0101
EXPERIMENTAL ENDPOINT: IC50 (nM)
Write the value in nM as a bare number.

Answered examples (2):
I have this molecule here, CC[C@H](C)[C@H](NC(=O)[C@@H]1CCCN1)C(=O)N[C@@H](CC(C)C)C(=O)N[C@@H](CC(C)C)C(=O)N[C@@H](Cc1c[nH]c2ccccc12)C(=O)N[C@@H](CCC(N)=O)C(=O)N1CCC[C@H]1C(=O)N[C@H](C(=O)N1CCC[C@H]1C(=O)N[C@H](C(=O)N[C@@H](Cc1c[nH]cn1)C(=O)N[C@H](C(=O)N[C@H](C(=O)N1CCC[C@H]1C(=O)N[C@@H](CC(C)C)C(=O)O)C(C)C)[C@@H](C)O)C(C)C)[C@@H](C)CC , and I need its recorded IC50.
44

Lookup CC[C@H](C)[C@H](N)C(=O)N[C@@H](Cc1ccc(O)cc1)C(=O)N[C@@H](CO)C(=O)N[C@H](C(=O)N[C@@H](CO)C(=O)N[C@@H](CCSC)C(=O)N[C@@H](CCCCN)C(=O)N[C@@H](Cc1c[nH]cn1)C(=O)N1CCC[C@H]1C(=O)N[C@@H](CCC(N)=O)C(=O)N[C@@H](CCC(=O)O)C(=O)N[C@@H](CCSC)C(=O)N[C@@H](CCCCN)C(=O)N[C@H](C(=O)N[C@@H](Cc1ccc(O)cc1)C(=O)O)[C@@H](C)O)[C@@H](C)CC
8450

Switching to the query record.
I have this molecule here, CC[C@H](C)[C@H](NC(=O)[C@@H](NC(=O)[C@@H]1CCCN1C(=O)CNC(=O)[C@@H](NC(=O)[C@H](CC(C)C)NC(=O)[C@H](CCC(=O)O)NC(=O)[C@H](C)NC(=O)[C@@H](N)Cc1ccccc1)C(C)C)C(C)C)C(=O)N1CCC[C@H]1C(=O)N[C@@H](CCC(N)=O)C(=O)N[C@@H](CC(=O)O)C(=O)N[C@@H](Cc1c[nH]c2ccccc12)C(=O)N[C@@H](CO)C(=O)N[C@H](C(=O)O)[C@@H](C)O , and I need its recorded IC50.
12
